test: Mouse absorption test (pharmacokinetic properties in mice); type: in vivo; settings: mouse, plasma, po, intragastric, 30 mg/kg
Assign Cmax to each entry below.
Use ng/mL as the unit, but write only the number.

For CN1CCN([C@@H]2CCCN(c3nnc(C(N)=O)c(Nc4ccc(N5CCN(C[C@H]6CCN(c7ccc8c(c7)C(=O)N(C7CCC(=O)NC7=O)C8=O)C6)CC5)c(F)c4)n3)C2)C1=O (stereo partly drawn) , what is its reported Cmax? 7800

Same for CN1CCN([C@@H]2CCCN(c3nnc(C(N)=O)c(Nc4ccc(N5CCN(C[C@@H]6CCN(c7ccc8c(c7)C(=O)N(C7CCC(=O)NC7=O)C8=O)C6)CC5)c(F)c4)n3)C2)C1=O (stereo partly drawn) 6190

Same for CN1CCN([C@@H]2CCCN(c3nnc(C(N)=O)c(Nc4ccc(N5CCN(CC6CCN(c7ccc(C(=O)N[C@H]8CCC(=O)NC8=O)nc7)C6)CC5)c(F)c4)n3)C2)C1=O (stereo partly drawn) 13800

---

Assign DC50 to each entry below.
Target: BTK (Homo sapiens, UniProt Q06187)
Construct: endogenous in cells; host or cells: Mino cells
Sequence (Q06187 whole entry): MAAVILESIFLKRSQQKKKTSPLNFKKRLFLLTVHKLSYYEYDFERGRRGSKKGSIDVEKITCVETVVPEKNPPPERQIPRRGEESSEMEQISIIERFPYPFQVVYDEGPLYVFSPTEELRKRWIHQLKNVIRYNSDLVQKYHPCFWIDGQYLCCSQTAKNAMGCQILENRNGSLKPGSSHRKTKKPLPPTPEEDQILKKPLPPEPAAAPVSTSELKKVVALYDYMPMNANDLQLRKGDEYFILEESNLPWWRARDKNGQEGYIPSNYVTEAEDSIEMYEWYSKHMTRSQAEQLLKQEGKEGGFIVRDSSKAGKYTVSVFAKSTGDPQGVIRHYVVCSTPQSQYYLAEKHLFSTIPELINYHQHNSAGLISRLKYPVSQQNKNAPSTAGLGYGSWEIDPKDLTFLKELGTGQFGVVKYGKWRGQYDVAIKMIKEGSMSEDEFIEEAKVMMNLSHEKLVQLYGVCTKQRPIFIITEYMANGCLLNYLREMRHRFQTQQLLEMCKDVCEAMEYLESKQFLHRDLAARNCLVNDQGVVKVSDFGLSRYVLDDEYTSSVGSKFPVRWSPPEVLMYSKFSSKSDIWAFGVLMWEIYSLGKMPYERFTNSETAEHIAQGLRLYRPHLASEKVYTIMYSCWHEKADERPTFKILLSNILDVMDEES
Assay: BTK degradation activity test in Mino cells
Assay type: cell-based
Details: 16 h incubation, Western blot or Elisa
Method: Mino cell line cells were seeded at 500,000 to 1,000,000 cells/well in a 6-well plate. The compounds were diluted to different concentrations and added to the plate, and after 16 h of incubation, cells were harvested. After lysing the cells, the total protein concentration in each well was determined using the BCA method. The amount of BTK was determined using Western blot or Elisa method. […]

For NC(=O)c1nnc(N2CCCC(N3CCN(c4ccccc4)C3=O)C2)nc1Nc1ccc(N2CCC(N3CCN(CC#Cc4ccc5c(c4)CN(C4CCC(=O)NC4=O)C5=O)CC3)CC2)cc1 (centres unmarked) [Compound 097] , what is its reported DC50? > 1 nM

Same for CN1CCN([C@@H]2CCCN(c3nnc(C(N)=O)c(Nc4ccc(C5CCN(CC6CCN(c7ccc8c(c7)C(=O)N(C7CCC(=O)NC7=O)C8=O)CC6)CC5)c(F)c4)n3)C2)C1=O (some centres unmarked) [Compound 129] < 1 nM

Same for CN1CCN([C@@H]2CCCN(c3nnc(C(N)=O)c(Nc4ccc(N5CCN(CC6CCN(c7ccc8c(c7)C(=O)N(C7CCC(=O)NC7=O)C8=O)C6)CC5)c(Cl)c4)n3)C2)C1=O (some centres unmarked) [Compound 133] < 1 nM

Same for CN1CCN(C2CCCN(c3nnc(C(N)=O)c(Nc4ccc(C5CCN(CC6CCN(c7cc8c(cc7F)C(=O)N(C7CCC(=O)NC7=O)C8=O)CC6)CC5)cc4)n3)C2)C1=O (centres unmarked) [Compound 085] < 1 nM

Same for CN1CCN([C@@H]2CCCN(c3nnc(C(N)=O)c(Nc4ccc(N5CCN(CC6CCN(c7ccc(N8CCC(=O)NC8=O)c8cccnc78)CC6)CC5)c(F)c4)n3)C2)C1=O [Compound 199] < 1 nM

Same for NC(=O)c1nnc(N2CCCC(N3CCN(C4CCOCC4)C3=O)C2)nc1Nc1ccc(C2CCN(CC3CCN(c4ccc5c(c4)C(=O)N(C4CCC(=O)NC4=O)C5=O)CC3)CC2)cc1 (centres unmarked) [Compound 063] > 1 nM

Same for NC(=O)c1ncc(N2CCCC(N3CCN(C4COC4)C3=O)C2)nc1Nc1ccc(N2CC3(C2)CN(c2ccc4c(c2)C(=O)N(C2CCC(=O)NC2=O)C4=O)C3)cc1 (centres unmarked) [Compound 018] < 1 nM

Same for NC(=O)c1nnc(N2CCCC(N3CCN(c4ccccc4)C3=O)C2)nc1Nc1ccc(C2CCN(CC3CCN(c4ccc5c(c4)C(=O)N(C4CCC(=O)NC4=O)C5)CC3)CC2)cc1 (centres unmarked) [Compound 099] < 1 nM

Same for CN1CCN(C2CC3CC2N(c2nnc(C(N)=O)c(Nc4ccc5c(c4)CCN(C4CN(c6ccc7c(c6)C(=O)N(C6CCC(=O)NC6=O)C7=O)C4)C5)n2)C3)C1=O (centres unmarked) [Compound 106] < 1 nM

Same for CN1C(=O)N(C2CCCN(c3cnc(C(N)=O)c(Nc4ccc(C5(C)CCN(C6CN(c7ccc8c(c7)C(=O)N(C7CCC(=O)NC7=O)C8=O)C6)CC5)cc4)n3)C2)C2CCCCC21 (centres unmarked) [Compound 009] < 1 nM

Same for CN1CCN([C@@H]2CCCN(c3nnc(C(N)=O)c(Nc4ccc(N5CCN(CC6CCN(c7ccc8c9c([nH]c8c7)C(=O)N(C7CCC(=O)NC7=O)C9)CC6)CC5)c(F)c4)n3)C2)C1=O (some centres unmarked) [Compound 222] < 1 nM

Same for NC(=O)c1ncc(N2CCCC(N3CCN(C4CCCC4)C3=O)C2)nc1Nc1ccc(N2CCC(C#CCN3CCN(c4ccc5c(c4)C(=O)N(C4CCC(=O)NC4=O)C5=O)CC3)CC2)cc1 (centres unmarked) [Compound 029] < 1 nM

Same for CN1CCN([C@@H]2CCCN(c3nnc(C(N)=O)c(Nc4ccc(N5CCN(CC6CCN(c7cccc8c(C9CCC(=O)NC9=O)nn(C)c78)CC6)CC5)c(F)c4)n3)C2)C1=O (some centres unmarked) [Compound 217] < 1 nM

Same for NC(=O)c1ncc(N2CCCC(N3CCN(C4COC4)C3=O)C2)nc1Nc1ccc(N2CCC3(CC2)CC(N2CCN(c4ccc5c(c4)C(=O)N(C4CCC(=O)NC4=O)C5=O)CC2)C3)cc1 (centres unmarked) [Compound 019] > 1 nM

Same for NC(=O)c1nnc(N2CC3CC(N4C(=O)c5ccccc5C4=O)C2C3)nc1Nc1ccc(C2CCN(CC3CCN(c4ccc5c(c4)C(=O)N(C4CCC(=O)NC4=O)C5=O)C3)CC2)cc1 (centres unmarked) [Compound 144] < 1 nM

Same for CN1CCN([C@@H]2CCCN(c3nnc(C(N)=O)c(Nc4ccc(N5CCN(CC6CCN(c7ccc(NC8CCC(=O)NC8=O)nc7)CC6)CC5)c(F)c4)n3)C2)C1=O (some centres unmarked) [Compound 202] < 1 nM

Same for N#Cc1cc(Nc2nc(N3CCCC(N4CCN(C5CCCC5)C4=O)C3)cnc2C(N)=O)ccc1C1CCN(CC2CCN(c3ccc4c(c3)C(=O)N(C3CCC(=O)NC3=O)C4=O)C2)CC1 (centres unmarked) [Compound 042] < 1 nM

Same for CN1CCN(C2CC3CC2N(c2nnc(C(N)=O)c(Nc4ccc(C5CCN(C6CN(c7ccc8c(c7)C(=O)N(C7CCC(=O)NC7=O)C8=O)C6)CC5)cc4)n2)C3)C1=O (centres unmarked) [Compound 049] < 1 nM

Same for CN1CCN([C@@H]2CCCN(c3nnc(C(N)=O)c(Nc4ccc(N5CCN(CC6CCN(c7ccc(NC8CCC(=O)NC8=O)c8c7OCO8)CC6)CC5)c(F)c4)n3)C2)C1=O (some centres unmarked) [Compound 209] < 1 nM

Same for NC(=O)c1nnc(N2CCCC(N3CCN(c4cccc(F)c4)C3=O)C2)nc1Nc1ccc(C2CCN(CC3CCN(c4ccc5c(c4)C(=O)N(C4CCC(=O)NC4=O)C5=O)CC3)CC2)cc1 (centres unmarked) [Compound 066] < 1 nM

---

test: Stability of compounds in human liver microsome; assay type: in vitro ADME; conditions: human liver microsomes, NADPH, 37° C., sampling 0-120 min; read-out: Human liver microsome T1/2
RECORDED ENDPOINT: half-life at 0.97 µg/mL

For CN1CCN([C@@H]2CCCN(c3nnc(C(N)=O)c(Nc4ccc(N5CCN(CC6CCN(c7ccc8c(c7)n(C)c(=O)n8C7CCC(=O)NC7=O)C6)CC5)c(F)c4)n3)C2)C1=O (stereo partly shown) , what is its reported half-life at 0.97 µg/mL? > 30 min

Same for CN1CCN([C@@H]2CCCN(c3nnc(C(N)=O)c(Nc4ccc(N5CCN(CC6CCN(c7ccc(C(=O)NC8CCC(=O)NC8=O)c8[nH]cnc78)CC6)CC5)c(F)c4)n3)C2)C1=O (stereo partly shown) > 30 min

Same for `COc1cc(N2CCC(CN3CCN(c4ccc(Nc5nc(N6CCC[C@@H](N7CCN(C)C7=O)C6)nnc5C(N)=O)cc4F)CC3)CC2)ccc1N1CCC(=O)NC1=O` > 30 min

Same for CN1CCN([C@@H]2CCCN(c3nnc(C(N)=O)c(Nc4ccc(N5CCN(CC6CCN(c7ccc(C(=O)N[C@H]8CCC(=O)NC8=O)nc7)C6)CC5)c(F)c4)n3)C2)C1=O (stereo partly shown) > 30 min

Same for CN1CCN([C@@H]2CCCN(c3nnc(C(N)=O)c(Nc4ccc(N5CCN(CC6CCN(c7ccc8c(c7)C(=O)N(C7CCC(=O)NC7=O)C8=O)C6)CC5)c(Cl)c4)n3)C2)C1=O (stereo partly shown) 31.7 min

Same for `CN1CCN([C@@H]2CCCN(c3nnc(C(N)=O)c(Nc4ccc(N5CCN(CC6CCN(c7ccc(N8CCC(=O)NC8=O)nc7)CC6)CC5)c(F)c4)n3)C2)C1=O` > 30 min

Same for CN1CCN([C@@H]2CCCN(c3nnc(C(N)=O)c(Nc4ccc(N5CCN(CC6CCN(c7ccc(F)c(N8CCC(=O)NC8=O)c7)C6)CC5)c(F)c4)n3)C2)C1=O (stereo partly shown) > 30 min

Same for CN1CCN([C@@H]2CCCN(c3nnc(C(N)=O)c(Nc4ccc(N5CCN(CC6CCN(c7ccc(C(=O)NC8CCC(=O)NC8=O)nc7)C6)CC5)c(F)c4)n3)C2)C1=O (stereo partly shown) > 30 min

Same for CN1CCN([C@@H]2CCCN(c3nnc(C(N)=O)c(Nc4ccc(C5CCN(CC6CCN(c7cc8c(cc7F)C(=O)N(C7CCC(=O)NC7=O)C8=O)C6)CC5)cc4)n3)C2)C1=O (stereo partly shown) 55.6 min

Same for `CN1CCN([C@@H]2CCCN(c3nnc(C(N)=O)c(Nc4ccc(N5CCN(CC6CCN(c7ccc(N8CCC(=O)NC8=O)cc7)CC6)CC5)c(F)c4)n3)C2)C1=O` > 30 min

Same for NC(=O)c1nnc(N2CCC[C@@H](N3CCN(CC(F)(F)F)C3=O)C2)nc1Nc1ccc(C2CCN(CC3CCN(c4ccc5c(c4)C(=O)N(C4CCC(=O)NC4=O)C5=O)C3)CC2)cc1 (stereo partly shown) 26.3 min

Same for NC(=O)c1nnc(N2CCC[C@@H](N3C(=O)CCC3=O)C2)nc1Nc1ccc(C2CCN(CC3CCN(c4ccc5c(c4)C(=O)N(C4CCC(=O)NC4=O)C5=O)CC3)CC2)cc1 (stereo partly shown) 25 min

Same for CN1CCN([C@@H]2CCCN(c3nnc(C(N)=O)c(Nc4ccc(N5CCN(CC6CCN(c7ccc8c(c7)C(=O)N(C7CCC(=O)NC7=O)C8=O)C6)CC5)c(F)c4)n3)C2)C1=O (stereo partly shown) 32.6 min

Same for COc1cc(N2CCC(CN3CCN(c4ccc(Nc5nc(N6CCC[C@@H](N7CCN(C)C7=O)C6)nnc5C(N)=O)cc4F)CC3)CC2)ccc1C(=O)NC1CCC(=O)NC1=O (stereo partly shown) > 30 min

Same for NC(=O)c1nnc(N2CCC[C@@H](N3C(=O)CCC3=O)C2)nc1Nc1ccc(C2CCN(CC3CCN(c4ccc5c(c4)C(=O)N(C4CCC(=O)NC4=O)C5=O)C3)CC2)cc1 (stereo partly shown) 24 min

Same for CN1CCN([C@@H]2CCCN(c3nnc(C(N)=O)c(Nc4ccc(N5CCN(C[C@@H]6CCN(c7ccc8c(c7)C(=O)N(C7CCC(=O)NC7=O)C8=O)C6)CC5)c(F)c4)n3)C2)C1=O (stereo partly shown) > 30 min

Same for CN1CCN([C@@H]2CCCN(c3nnc(C(N)=O)c(Nc4ccc(N5CCN(C[C@H]6CCN(c7ccc8c(c7)C(=O)N(C7CCC(=O)NC7=O)C8=O)C6)CC5)c(F)c4)n3)C2)C1=O (stereo partly shown) > 30 min

Same for CN1CCN([C@@H]2CCCN(c3nnc(C(N)=O)c(Nc4ccc(N5CCN(CC6CCN(c7ccc8c(c7)C(=O)N(C7CCC(=O)NC7=O)C8=O)CC6)CC5)c(F)c4)n3)C2)C1=O (stereo partly shown) > 30 min

Same for COc1ccc(N2CCC(CN3CCN(c4ccc(Nc5nc(N6CCC[C@@H](N7CCN(C)C7=O)C6)nnc5C(N)=O)cc4F)CC3)C2)cc1N1CCC(=O)NC1=O (stereo partly shown) > 30 min

Values compiled from patent US20240360146A1.
